Data credit: paper PMC6273978

Test System: CYP2C9 (Homo sapiens, UniProt P11712)
Sequence (P11712 whole entry): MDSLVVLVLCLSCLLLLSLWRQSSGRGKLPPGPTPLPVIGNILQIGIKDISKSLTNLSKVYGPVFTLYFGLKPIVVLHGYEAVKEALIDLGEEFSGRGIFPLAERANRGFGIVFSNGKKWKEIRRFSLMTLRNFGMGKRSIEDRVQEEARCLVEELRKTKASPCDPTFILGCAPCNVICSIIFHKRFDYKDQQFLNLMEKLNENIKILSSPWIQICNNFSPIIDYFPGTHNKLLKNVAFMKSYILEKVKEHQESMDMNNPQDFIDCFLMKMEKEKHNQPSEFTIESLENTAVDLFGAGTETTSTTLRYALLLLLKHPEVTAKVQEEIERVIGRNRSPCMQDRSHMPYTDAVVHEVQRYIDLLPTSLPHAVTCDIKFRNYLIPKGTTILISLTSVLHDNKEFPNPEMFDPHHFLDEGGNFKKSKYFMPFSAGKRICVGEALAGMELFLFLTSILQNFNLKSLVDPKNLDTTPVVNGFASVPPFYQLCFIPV
pIC50: −log10 of the molar value.

{"columns": ["Compound", "pIC50"],
 "data": [
  ["C=C[C@]1(C)C[C@@H](OC(=O)CSc2nc3ccc(N)cc3[nH]2)[C@]2(C)[C@H](C)CC[C@]3(CCC(=O)[C@H]32)[C@@H](C)[C@@H]1O [Compound 3]", 4.97]
]}

====

Tested on: S. vitulinus
Assay Overview: Oxford cup assay, zone of inhibition
Type: cell-based, Staphylococcus vitulinus
Condition Set: Mammaliicoccus vitulinus; 320 µg/mL
Tick yes (1) if zone of inhibition at 320 µg/mL is 20 mm or greater. Tick no (0) if zone of inhibition at 320 µg/mL is less than 20 mm.

{"columns": ["Molecule", "Classification"],
 "data": [
  ["C=C[C@]1(C)C[C@@H](OC(=O)CSc2nc3ccc(NC(=O)c4ccccc4C)cc3[nH]2)[C@]2(C)[C@H](C)CC[C@]3(CCC(=O)[C@H]32)[C@@H](C)[C@@H]1O [Compound 4d]", "no (0)"],
  ["C=C[C@]1(C)C[C@@H](OC(=O)CSc2nc3ccc(NC(=O)c4ccc(Cl)cc4)cc3[nH]2)[C@]2(C)[C@H](C)CC[C@]3(CCC(=O)[C@H]32)[C@@H](C)[C@@H]1O [Compound 4c]", "yes (1)"],
  ["C=C[C@]1(C)C[C@@H](OC(=O)CSc2nc3ccc(NC(=O)c4cc5ccccc5[nH]4)cc3[nH]2)[C@]2(C)[C@H](C)CC[C@]3(CCC(=O)[C@H]32)[C@@H](C)[C@@H]1O [Compound 4l]", "yes (1)"],
  ["C=C[C@]1(C)C[C@@H](OC(=O)CSc2nc3ccc(NC(=O)c4cccc(Cl)c4)cc3[nH]2)[C@]2(C)[C@H](C)CC[C@]3(CCC(=O)[C@H]32)[C@@H](C)[C@@H]1O [Compound 4b]", "yes (1)"],
  ["C=C[C@]1(C)C[C@@H](OC(=O)CSc2nc3ccc(NC(=O)c4ccc(OC)cc4)cc3[nH]2)[C@]2(C)[C@H](C)CC[C@]3(CCC(=O)[C@H]32)[C@@H](C)[C@@H]1O [Compound 4i]", "no (0)"],
  ["C=C[C@]1(C)C[C@@H](OC(=O)CSc2nc3ccc(NC(=O)c4cccc(OC)c4)cc3[nH]2)[C@]2(C)[C@H](C)CC[C@]3(CCC(=O)[C@H]32)[C@@H](C)[C@@H]1O [Compound 4h]", "yes (1)"]
]}

====

Test system: S. vitulinus
Assay Overview: Oxford cup assay, zone of inhibition
Type: cell-based, Staphylococcus vitulinus
Condition Set: Mammaliicoccus vitulinus; 160 µg/mL
Counter-ions that a name gives are not always drawn.
Each entry below carries its reported zone of inhibition at 160 µg/mL.

{"columns": ["Compound", "zone of inhibition at 160 µg/mL"],
 "data": [
  ["C=C[C@]1(C)C[C@@H](OC(=O)CSc2nc3ccc(NC(=O)c4ccc(Cl)cc4)cc3[nH]2)[C@]2(C)[C@H](C)CC[C@]3(CCC(=O)[C@H]32)[C@@H](C)[C@@H]1O [Compound 4c]", "20.5 mm"],
  ["C=C[C@]1(C)C[C@@H](OC(=O)CSc2nc3ccc(NC(=O)C4CCCCC4)cc3[nH]2)[C@]2(C)[C@H](C)CC[C@]3(CCC(=O)[C@H]32)[C@@H](C)[C@@H]1O [Compound 4j]", "26 mm"],
  ["C=C[C@]1(C)C[C@@H](OC(=O)CSc2nc3ccc(NC(=O)c4ccccc4OC)cc3[nH]2)[C@]2(C)[C@H](C)CC[C@]3(CCC(=O)[C@H]32)[C@@H](C)[C@@H]1O [Compound 4g]", "16.2 mm"],
  ["C=C[C@]1(C)C[C@@H](OC(=O)CSCCN(CC)CC)[C@]2(C)[C@H](C)CC[C@]3(CCC(=O)[C@H]32)[C@@H](C)[C@@H]1O [Tiamulin, tiamulin fumarate, reference compound]", "18.6 mm"],
  ["C=C[C@]1(C)C[C@@H](OC(=O)CSc2nc3ccc(NC(=O)c4ccc(OC)cc4)cc3[nH]2)[C@]2(C)[C@H](C)CC[C@]3(CCC(=O)[C@H]32)[C@@H](C)[C@@H]1O [Compound 4i]", "17.6 mm"],
  ["C=C[C@]1(C)C[C@@H](OC(=O)CSc2nc3ccc(N)cc3[nH]2)[C@]2(C)[C@H](C)CC[C@]3(CCC(=O)[C@H]32)[C@@H](C)[C@@H]1O [Compound 3]", "25.5 mm"]
]}

====

In this section, each of the compounds is paired with its reported zone of inhibition at 160 µg/mL.
Test system: S. vitulinus
Assay Overview: Oxford cup assay, zone of inhibition
Type: cell-based, Staphylococcus vitulinus
Condition Set: Mammaliicoccus vitulinus; 160 µg/mL
Readout Name: zone of inhibition at 160 µg/mL (mm)

{"columns": ["Compound", "Readout Name", "Output Unit", "Numeric Value"],
 "data": [
  ["C=C[C@]1(C)C[C@@H](OC(=O)CSc2nc3ccc(NC(=O)c4cc5ccccc5[nH]4)cc3[nH]2)[C@]2(C)[C@H](C)CC[C@]3(CCC(=O)[C@H]32)[C@@H](C)[C@@H]1O [Compound 4l]", "zone of inhibition at 160 µg/mL", "mm", 22.1],
  ["C=C[C@]1(C)C[C@@H](OC(=O)CSc2nc3ccc(NC(=O)c4cccc(OC)c4)cc3[nH]2)[C@]2(C)[C@H](C)CC[C@]3(CCC(=O)[C@H]32)[C@@H](C)[C@@H]1O [Compound 4h]", "zone of inhibition at 160 µg/mL", "mm", 19.8],
  ["C=C[C@]1(C)C[C@@H](OC(=O)CSc2nc3ccc(NC(=O)c4ccc(C)cc4)cc3[nH]2)[C@]2(C)[C@H](C)CC[C@]3(CCC(=O)[C@H]32)[C@@H](C)[C@@H]1O [Compound 4f]", "zone of inhibition at 160 µg/mL", "mm", 14]
]}

====

System: S. warneri
Assay Overview: Oxford cup assay, zone of inhibition
Type: cell-based
Condition Set: Staphylococcus warneri; 160 µg/mL
Label scheme for zone of inhibition at 160 µg/mL: lower than 20 mm is no, 20 mm and above is yes.

{"columns": ["Smiles Entry", "Classification"],
 "data": [
  ["C=C[C@]1(C)C[C@@H](OC(=O)CSc2nc3ccc(NC(=O)C4CCCCC4)cc3[nH]2)[C@]2(C)[C@H](C)CC[C@]3(CCC(=O)[C@H]32)[C@@H](C)[C@@H]1O", "yes"],
  ["C=C[C@]1(C)C[C@@H](OC(=O)CSc2nc3ccc(NC(=O)c4cc5ccccc5[nH]4)cc3[nH]2)[C@]2(C)[C@H](C)CC[C@]3(CCC(=O)[C@H]32)[C@@H](C)[C@@H]1O", "yes"],
  ["C=C[C@]1(C)C[C@@H](OC(=O)CSc2nc3ccc(NC(=O)c4ccccc4Cl)cc3[nH]2)[C@]2(C)[C@H](C)CC[C@]3(CCC(=O)[C@H]32)[C@@H](C)[C@@H]1O", "yes"],
  ["C=C[C@]1(C)C[C@@H](OC(=O)CSc2nc3ccc(NC(=O)c4cccc(Cl)c4)cc3[nH]2)[C@]2(C)[C@H](C)CC[C@]3(CCC(=O)[C@H]32)[C@@H](C)[C@@H]1O", "no"],
  ["C=C[C@]1(C)C[C@@H](OC(=O)CSc2nc3ccc(NC(=O)c4ccc[nH]4)cc3[nH]2)[C@]2(C)[C@H](C)CC[C@]3(CCC(=O)[C@H]32)[C@@H](C)[C@@H]1O", "yes"]
]}

====

Test system: MRSA
Assay Overview: Oxford cup assay, zone of inhibition
Type: cell-based
Condition Set: Staphylococcus aureus, 160 µg/mL
Where a name gives a salt, the structure may show the parent alone.
Reported zone of inhibition at 160 µg/mL values for the following compounds.

{"columns": ["Compound", "zone of inhibition at 160 µg/mL (mm)"],
 "data": [
  ["C=C[C@]1(C)C[C@@H](OC(=O)CSc2nc3ccc(NC(=O)c4cccc(C)c4)cc3[nH]2)[C@]2(C)[C@H](C)CC[C@]3(CCC(=O)[C@H]32)[C@@H](C)[C@@H]1O", 25.6],
  ["C=C[C@]1(C)C[C@@H](OC(=O)CSc2nc3ccc(NC(=O)c4ccc(OC)cc4)cc3[nH]2)[C@]2(C)[C@H](C)CC[C@]3(CCC(=O)[C@H]32)[C@@H](C)[C@@H]1O", 21.3],
  ["C=C[C@]1(C)C[C@@H](OC(=O)CSc2nc3ccc(NC(=O)c4cccc(Cl)c4)cc3[nH]2)[C@]2(C)[C@H](C)CC[C@]3(CCC(=O)[C@H]32)[C@@H](C)[C@@H]1O", 17.3],
  ["C=C[C@]1(C)C[C@@H](OC(=O)CSCCN(CC)CC)[C@]2(C)[C@H](C)CC[C@]3(CCC(=O)[C@H]32)[C@@H](C)[C@@H]1O [Tiamulin, tiamulin fumarate, reference compound]", 28.1],
  ["C=C[C@]1(C)C[C@@H](OC(=O)CSc2nc3ccc(NC(=O)c4ccc(C)cc4)cc3[nH]2)[C@]2(C)[C@H](C)CC[C@]3(CCC(=O)[C@H]32)[C@@H](C)[C@@H]1O", 14.1]
]}
